Cited source: paper PMC10058827

Tested on: conditional immortalized human fibroblast cell line FS4-LTM
Assay: Antiproliferative WST-1 assay
Assay type: cell-based
Details: WST-1, 24 h
RECORDED METRIC: pEC50
Hey, just a heads up that pEC50 is the negative log base 10 of the concentration in molar.

Reported pEC50 for CC(=O)OC[C@H]1O[C@@H]([S-])[C@H](OC(C)=O)[C@@H](OC(C)=O)[C@@H]1OC(C)=O.CCP(CC)CC.[Au+] [Auranofin, reference compound] was 5.89

###

System: four mammalian cell lines (L929, KB-3-1, MCF-7, FS4-LTM)
Test: Antiproliferative WST-1 assay, range over all four cell lines
Format: cell-based
Conditions: 5 days (L929, KB-3-1, MCF-7) or 24 h (FS4-LTM)
pEC50: −log10 of the molar value.
RECORDED METRIC: pEC50

>>> df
                                   compound        result
0  CCOC(=O)C[S+]([O-])c1nc2c(ccc3ccccc32)c(C(Cl)Cl)c1[N+](=O)[O-] (centres unmarked)  5.42 to 5.60

The record that follows has no pEC50 shown yet.
Documented pEC50 of O=C(O)CSc1nc2c(ccc3ccccc32)c(C(Cl)Cl)c1[N+](=O)[O-] : 4.35 to 5.16
